Biological target: human OX2R (Homo sapiens, UniProt O43614)
Construct: expressed in transfected cells; host or cells: CHO (Chinese hamster ovary) cells grown under G418 selection
Sequence (O43614 whole entry): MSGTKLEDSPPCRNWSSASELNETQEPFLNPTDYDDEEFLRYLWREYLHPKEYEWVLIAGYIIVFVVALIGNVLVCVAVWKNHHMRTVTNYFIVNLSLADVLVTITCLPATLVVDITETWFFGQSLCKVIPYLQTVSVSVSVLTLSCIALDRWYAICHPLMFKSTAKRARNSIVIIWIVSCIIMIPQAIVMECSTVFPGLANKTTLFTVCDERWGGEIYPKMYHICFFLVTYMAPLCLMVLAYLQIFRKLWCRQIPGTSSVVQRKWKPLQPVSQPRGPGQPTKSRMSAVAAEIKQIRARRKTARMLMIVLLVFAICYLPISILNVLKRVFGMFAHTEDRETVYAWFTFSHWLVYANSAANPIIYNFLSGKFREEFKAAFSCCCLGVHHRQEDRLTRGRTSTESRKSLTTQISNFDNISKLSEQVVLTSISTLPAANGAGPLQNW
Test: IPOne (IP-1 accumulation) assay in CHO cells expressing human OX2R
Type: cell-based
Settings: percent effect vs mean max effect of a reference compound at 1 uM (100% activity vs Orexin A), human OX2R
MEASURED QUANTITY: % of maximum agonist effect (relative to Orexin A) (%)

1. CCN(C(=O)NCC(C)C(F)(F)F)[C@@H](c1cc(-c2cn3ccnc3c(OC)n2)c(OC)cn1)C(F)(F)F (stereo partly shown)    97.6
2. CCN(C(=O)NCC(N(C)C)C(F)(F)F)[C@H](C)c1cccc(-c2cc(OC)c3nccn3c2)c1 (stereo partly shown)    97.3
3. CCN(C(=O)N[C@@H](CCC(F)(F)F)C(F)(F)F)C(c1cnc(OC)c(-c2cn3ccnc3c(OC)n2)n1)C(F)(F)F (stereo partly shown)    101.6
4. CCN(C(=O)N[C@@H](CCC(F)(F)F)C(F)(F)F)C(c1cc(-c2cn3ccnc3c(OC)n2)c(OC)c(C)n1)C(F)(F)F (stereo partly shown)    98.9
5. C#CC(NC(=O)N(CC)[C@@H](c1cc(-c2cn3ccnc3c(OC)n2)c(OC)cn1)C(F)(F)F)C(F)(F)F (stereo partly shown)    100.5
6. CCN(C(=O)NC(CC#N)C(F)(F)F)[C@H](C)c1cccc(-c2cn3ccnc3c(OC)n2)c1 (stereo partly shown)    101.3
7. CC[C@H](CCC(F)(F)F)NC(=O)N(C(C)C)[C@H](C)c1cccc(-c2cn3ccnc3c(OC)n2)c1    97.4

----------
Molecular target: human OX2R (Homo sapiens, UniProt O43614)
Construct: expressed in transfected cells; host or cells: CHO (Chinese hamster ovary) cells grown under G418 selection
Assay: IPOne (IP-1 accumulation) assay in CHO cells expressing human OX2R
Assay type: cell-based
Details: CHO cells expressing human OX2R; IP-One assay, 2 h incubation; four parameter logistic fit; read-out: OX2R Potency, EC50
MEASURED QUANTITY: EC50 (nM)

1. CCN(C(=O)N[C@@H](CCC(F)(F)F)C(F)(F)F)C(c1cc(-c2cn3cc(C)nc3c(OC)n2)c(OC)cn1)C(F)F (stereo partly drawn) [Example 2-17]    3.2
2. CCN(C(=O)NC(C1CC(F)(F)CCN1C)C(F)(F)F)[C@H](C)c1cccc(-c2cc(OC)n3nccc3c2)c1 (stereo partly drawn) [Example 2-53]    1.5
3. CCN(C(=O)N[C@@H](CCC(F)(F)F)C(F)(F)F)[C@H](C)c1cnc(C)c(-c2cn3ccnc3c(OC)n2)c1 [Example 10-18]    11.9

----------
Target: human OX2R (Homo sapiens)
Assay: IPOne (IP-1 accumulation) assay in CHO cells expressing human OX2R
Details: CHO cells expressing human OX2R; IP-One assay, 2 h incubation; four parameter logistic fit; read-out: OX2R Potency, EC50
pEC50: −log10 of the molar value.
Tag: YES if measured pEC50 is not below 8, NO if it is.

1) CCN(C(=O)N[C@@H](CCC(F)(F)F)C(F)(F)F)[C@H](C)c1cccc(-c2cc(OC)c3nc(C(F)(F)F)cn3c2)c1 [Example 27]    NO
2) CCN(C(=O)NC(CO)C(F)(F)F)[C@H](C)c1cccc(-c2cn3ccnc3c(OC)n2)c1 (single isomer, unassigned) [Example 21]    NO
3) CCN(C(=O)N[C@@H](CCC(F)(F)F)C(F)(F)F)C(c1cc(-c2cn3ccnc3c(OC)n2)c2occc2n1)C(F)(F)F (some centres unmarked) [Example 2-13]    YES
4) CCN(C(=O)N[C@@H](CCC(F)(F)F)C(F)F)[C@@H](c1cc(-c2cn3cc(C)nc3c(OC)n2)c(OC)cn1)C(F)(F)F [Example 4-1]    YES
5) CCN(C(=O)N[C@@H](CCCF)C(F)(F)F)[C@@H](c1cc(-c2cn3cc(C)nc3c(OC)n2)c(OC)cn1)C(F)(F)F [Example 3-2]    YES
6) CCN(C(=O)N[C@@H](CCC(F)(F)F)C(F)(F)F)C(c1cncc(-c2cn3ccnc3c(OC)n2)c1)C(F)(F)F (some centres unmarked) [Example 10-22]    NO
7) CC[C@H](CCC(F)(F)F)NC(=O)N(CC)[C@H](C)c1cccc(-c2cc(COC)c3nccn3c2)c1 [Example 7-4]    NO
8) CCN(C(=O)NC(CCC(C)=O)C(F)(F)F)[C@H](C)c1cccc(-c2cn3ccnc3c(OC)n2)c1 (some centres unmarked) [Example 2-54]    YES
9) CCN(C(=O)N[C@@H](CCC(F)(F)F)C(F)(F)F)C(c1cc(-c2cc(OC)c3nccn3n2)c(OC)cn1)C(F)(F)F (some centres unmarked) [Example 10-10]    YES
10) CCN(C(=O)NCC(F)(F)F)[C@H](C)c1cccc(-c2cn3ccnc3c(OC)n2)c1 [Example 1-5]    NO
11) CCN(C(=O)N[C@H](C)c1cccc(F)c1)[C@H](C)c1cccc(-c2cn3ccnc3c(OC)n2)c1 [Example 1-2]    YES
12) CCN(C(=O)N[C@@H](CCC(F)(F)F)C(F)(F)F)C(C)c1cnnc(-c2cn3ccnc3c(OC)n2)c1 (some centres unmarked) [Example 2-64]    NO

----------
Form field: pEC50 (one value per entry).
Target: human OX2R (Homo sapiens)
Experiment: IPOne (IP-1 accumulation) assay in CHO cells expressing human OX2R
Details: CHO cells expressing human OX2R; IP-One assay, 2 h incubation; four parameter logistic fit; read-out: OX2R Potency, EC50
pEC50: −log10 of the molar value.
MEASURED QUANTITY: pEC50

1. CCN(C(=O)N[C@@H](CCC(F)(F)F)C(F)(F)F)[C@@H](c1cc(-c2cn3ccnc3c(OC)n2)c(OC)cn1)C(F)(F)F [Example 10-1]    8.96
2. CCN(C(=O)N[C@@H](CCC(F)(F)F)C(F)(F)F)C(c1cc(-c2cc(OC)c3nc(C#N)cn3c2)c(OC)cn1)C(F)(F)F (stereo partly drawn) [Example 10-7]    8.82
3. CCN(C(=O)N[C@@H](CCC(F)(F)F)C(F)(F)F)[C@H](C)c1cnc(OC)c(-c2cn3ccnc3c(OC)n2)c1 [Example 11-4]    9.15
4. CCN(C(=O)N[C@@H](CCC(F)(F)F)C(F)(F)F)C(c1cc(-c2cn3ccnc3c(OC)n2)cc(OC)n1)C(F)(F)F (stereo partly drawn) [Example 10-16]    7.45
5. CCN(C(=O)N[C@@H](CCC(C)(F)F)C(F)(F)F)[C@H](C)c1cnc(OC)c(-c2cn3ccnc3c(OC)n2)c1 [Example 10-19]    9.10
6. CCN(C(=O)N[C@@H](CCC(F)(F)F)C(F)(F)F)[C@H](C)c1cccc(-c2ccc3ncc(N)n3c2)c1 [Example 8-12]    7.76
7. C=Cc1ccc([C@@H](C)N(CC)C(=O)N[C@H](CC)CCC(F)(F)F)cc1-c1ccc2nccn2c1 [Example 19]    7.63
8. CCN(C(=O)NC(C)C1CCCC(F)(F)C1)[C@H](C)c1cccc(-c2cn3ccnc3c(OC)n2)c1 (stereo partly drawn) [Example 1-9]    9.22
9. CCN(C(=O)N[C@H](C)C1CCC(F)(F)CC1)[C@H](C)c1cccc(-c2cn3ccnc3c(OC)n2)c1 [Example 1-4]    8.16
10. CCN(C(=O)N[C@@H](CCC(F)(F)F)C(F)(F)F)C(C)c1cc(-c2cc(F)c3nccn3c2)c(Cl)cn1 (single isomer, unassigned) [Example 15-1]    8.24
11. CCN(C(=O)N[C@@H]1CC[C@H](C(F)(F)F)C1)[C@H](C)c1cccc(-c2cn3ccnc3c(OC)n2)c1 [Example 1-3]    8.19
12. CC[C@H](CCC(F)(F)F)NC(=O)N(CC)[C@@H](c1cc(-c2cn3ccnc3c(OC)n2)c(OC)cn1)C(F)(F)F [Example 2-21]    9.10
13. CCN(C(=O)N[C@@H](CCC(F)F)C(F)(F)F)[C@@H](c1cc(-c2cn3cc(C)nc3c(OC)n2)c(OC)cn1)C(F)(F)F [Example 3-3]    8.44
14. CCN(C(=O)N[C@H]1C[C@@]1(C)C(F)(F)F)[C@@H](c1cc(-c2cn3ccnc3c(OC)n2)c(OC)cn1)C(F)(F)F [Example 2-39]    8.24
15. CCN(C(=O)N[C@@H](CCC(F)(F)F)C(F)(F)F)C(C)c1cc(-c2cn3ccnc3c(OC)n2)ncn1 (stereo partly drawn) [Example 13-2]    7.77
16. CCN(C(=O)N[C@@H](CCC(F)(F)F)C(F)(F)F)C(c1cc(-c2cn3ccnc3c(OC)n2)cnc1OC)C(F)(F)F (stereo partly drawn) [Example 10-17]    7.05
17. CCN(C(=O)NC(C1CN(C)C1)C(F)(F)F)[C@H](C)c1cccc(-c2cn3ccnc3c(OC)n2)c1 (stereo partly drawn) [Example 1-15]    6.57
18. CCN(C(=O)N[C@@H](CCC(F)(F)F)C(F)(F)F)C(c1cc(-c2cc(OC)c3ncccc3c2)c(OC)cn1)C(F)(F)F (stereo partly drawn) [Example 10-11]    8.14
19. CCN(C(=O)NC1CC1)[C@@H](c1cc(-c2cn3ccnc3c(OC)n2)c(OC)cn1)C(F)(F)F [Example 2-32]    7.39
20. CCN(C(=O)NC(CN(C)C)C(F)(F)F)[C@H](C)c1cccc(-c2cc(OC)n3nccc3c2)c1 (stereo partly drawn) [Example 1-13]    6.84
21. CCN(C(=O)N[C@@H](CCC(F)(F)F)C(F)(F)F)C(c1cc(-c2cc(OC)c3nccnc3c2)c(OC)cn1)C(F)(F)F (stereo partly drawn) [Example 10-13]    6.88
22. CCN(C(=O)N[C@@H](CCC(F)(F)F)C(F)(F)F)[C@@H](c1cc(-c2cc3scnc3c(OC)n2)c(OC)cn1)C(F)(F)F [Example 10-8]    8.64
23. CC[C@H](NC(=O)N(CC)C(c1cc(-c2cn3ccnc3c(OC)n2)c(OC)cn1)C(F)(F)F)C(F)(F)F (stereo partly drawn) [Example 2-8]    7.88
24. CCC(CCC(F)(F)F)NC(=O)N(CC)[C@H](C)c1cccc(-c2cn3ccnc3cc2C)c1 (stereo partly drawn) [Example 8-8]    6.61
25. CC[C@H](CCC(F)(F)F)NC(=O)N(CC)[C@H](C)c1cccc(-c2cn3ccnc3cc2Cl)c1 [Example 8-15]    6.73
26. CCN(C(=O)N[C@@H](CCC(F)(F)F)C(F)(F)F)[C@H](C)c1cccc(-c2cc(OC)c3ncnn3c2)c1 [Example 8-11]    8.70
27. CCN(C(=O)N[C@@H](CCC(F)(F)F)C(F)(F)F)[C@@H](c1cc(-c2nc(OC)c3nccn3n2)c(OC)cn1)C(F)(F)F [Example 9-11]    8.59
